ASSAY SYSTEM: HLA B*5401 (Homo sapiens, UniProt P01889, A329T/C349S/D138N/D201E/E176V/E187T/E204Q/E69G/I76V/K202T/L119W/R155S/R180L/S121T/S35A/S48A/V127L/V306I/V36M/Y140L)
Format: binding
Group membership follows Normalized average relative binding affinity(ARB) per the scheme lower level: < 0.1; middle level: ≥ 0.1 and < 0.3; upper level: ≥ 0.3

Assign a category based on measured Normalized average relative binding affinity(ARB) for XXXXXXXNX [3064.0152] and give only the class name.
lower level

Assign a category based on measured Normalized average relative binding affinity(ARB) for XXXQXXXXX [3064.0074] and give only the class name.
lower level

Assign a category based on measured Normalized average relative binding affinity(ARB) for XXXXXWXXX [3064.0119] and give only the class name.
middle level

Assign a category based on measured Normalized average relative binding affinity(ARB) for XXXXXXXLX [3064.0150] and give only the class name.
lower level

Assign a category based on measured Normalized average relative binding affinity(ARB) for XXXXXXXGX [3064.0146] and give only the class name.
lower level

----------
ASSAY SYSTEM: HLA B*1501 (Homo sapiens, UniProt P01889, A329T/A93T/A95T/C349S/D201E/D98Y/E187L/E204Q/E69M/E70A/K202T/N87E/Q94N/R155S/R180W/S121R/S35A/S48A/V306I/V36M/Y140S/Y91S)
RUN DESCRIPTION: biochemical
Where a SMILES comes first, the peptide text is derived from it.
MEASURED PROPERTY: pIC50
Scale: pIC50 equals -log10([C]), with [C] in mol/L.

| COMPOUND | pIC50 |
| --- | --- |
| CSCC[C@H](NC(=O)[C@H](CCCCN)NC(=O)[C@H](CCCCN)NC(=O)[C@H](Cc1ccc(O)cc1)NC(=O)[C@@H](NC(=O)[C@@H](N)CC(C)C)C(C)C)C(=O)N[C@@H](CCC(N)=O)C(=O)N[C@@H](CO)C(=O)N[C@@H](Cc1ccc(O)cc1)C(=O)O [3102.0856] (H-LVYKKMQSY-OH) | 7.34 |
| CC[C@H](C)[C@H](NC(=O)[C@H](C)NC(=O)[C@H](CC(N)=O)NC(=O)[C@H](Cc1ccccc1)NC(=O)[C@H](CC(C)C)NC(=O)[C@@H](N)Cc1ccc(O)cc1)C(=O)N[C@@H](CCC(=O)O)C(=O)N[C@H](C(=O)N[C@@H](CCSC)C(=O)O)[C@@H](C)O [3102.0905] (H-YLFNAIETM-OH) | 8.85 |

Switching to the query record.
pIC50 for CC[C@H](C)[C@H](NC(=O)[C@H](Cc1c[nH]cn1)NC(=O)[C@H](CCC(N)=O)NC(=O)[C@H](CO)NC(=O)[C@H](CCC(=O)O)NC(=O)[C@@H](N)CC(C)C)C(=O)N[C@H](C(=O)N[C@@H](CO)C(=O)N[C@@H](Cc1ccccc1)C(=O)O)[C@@H](C)CC [3102.1322] (H-LESQHIISF-OH) ?
7.24

----------
ASSAY SYSTEM: HLA B*0801 (Homo sapiens, UniProt P01889, A93T/A95T/D138N/E176V/E187T/K202T/Q94N/R180D/S35A/V36M/Y33D/Y91F)
RUN DESCRIPTION: biochemical
Where a SMILES comes first, the peptide text is derived from it.
MEASURED PROPERTY: IC50 (nM)
Numbers only here, please. The scale is nM.

Please review the entries below; each comes with its answer.
| COMPOUND | UNIT DESCRIPTOR | IC50 |
| --- | --- | --- |
| CC[C@H](C)[C@H](NC(=O)[C@H](CS)NC(=O)[C@H](CS)NC(=O)[C@H](Cc1c[nH]cn1)NC(=O)[C@H](CCCNC(=N)N)NC(=O)[C@H](CO)NC(=O)[C@@H](NC(=O)[C@H](CCSC)NC(=O)[C@@H](N)CO)[C@@H](C)CC)C(=O)O [3102.0973] (H-SMISRHCCI-OH) | nM | 1.3 |
| CC[C@H](C)[C@H](NC(=O)[C@@H](NC(=O)[C@H](CC(N)=O)NC(=O)[C@H](CCSC)NC(=O)[C@@H](N)CO)[C@@H](C)O)C(=O)N[C@@H](CCCCN)C(=O)N[C@@H](CCC(N)=O)C(=O)N[C@@H](CO)C(=O)N[C@@H](Cc1ccccc1)C(=O)O [3102.1144] (H-SMNTIKQSF-OH) | nM | 450 |

IC50 for CC(C)C[C@H](NC(=O)[C@H](CCC(=O)O)NC(=O)[C@H](CC(N)=O)NC(=O)[C@H](CCCNC(=N)N)NC(=O)[C@H](CC(=O)O)NC(=O)[C@H](CCCCN)NC(=O)[C@H](CC(C)C)NC(=O)[C@@H](N)CC(C)C)C(=O)N[C@@H](Cc1ccccc1)C(=O)O [3102.0842] (H-LLKDRNELF-OH) ?
41

IC50 for CC(C)C[C@H](NC(=O)[C@@H](N)CC(N)=O)C(=O)N[C@@H](CCCNC(=N)N)C(=O)N[C@@H](CS)C(=O)N[C@@H](Cc1c[nH]cn1)C(=O)N[C@@H](CO)C(=O)N[C@@H](C)C(=O)N[C@@H](Cc1c[nH]cn1)C(=O)N[C@H](C(=O)O)C(C)C [3102.0700] (H-NLRCHSAHV-OH) ?
1.2

IC50 for CC(C)[C@H](NC(=O)[C@H](C)NC(=O)[C@H](CO)NC(=O)[C@H](Cc1ccc(O)cc1)NC(=O)[C@H](CCCNC(=N)N)NC(=O)CNC(=O)[C@H](Cc1ccc(O)cc1)NC(=O)[C@@H](NC(=O)[C@@H](N)CCCCN)C(C)C)C(=O)O [3102.0117] (H-KVYGRYSAV-OH) ?
4.2

IC50 for CC[C@H](C)[C@H](NC(=O)[C@H](Cc1c[nH]cn1)NC(=O)[C@@H](NC(=O)[C@@H](N)CCSC)C(C)C)C(=O)N[C@@H](Cc1ccc(O)cc1)C(=O)N[C@@H](Cc1ccccc1)C(=O)N[C@H](C(=O)N[C@@H](CO)C(=O)N[C@@H](CC(C)C)C(=O)O)C(C)C [3102.0878] (H-MVHIYFVSL-OH) ?
1.4

IC50 for CC[C@H](C)[C@H](NC(=O)[C@@H]1CCCN1C(=O)[C@H](CC(C)C)NC(=O)[C@H](Cc1ccccc1)NC(=O)[C@H](CO)NC(=O)[C@H](CCSC)NC(=O)[C@H](CCCCN)NC(=O)[C@H](CO)NC(=O)[C@@H](N)CCC(=O)O)C(=O)O [3102.0979] (H-ESKMSFLPI-OH) ?
1.1

IC50 for CC[C@H](C)[C@H](NC(=O)[C@H](CC(N)=O)NC(=O)[C@@H](N)CCCNC(=N)N)C(=O)N[C@@H](C)C(=O)N[C@@H](CCCNC(=N)N)C(=O)N[C@@H](Cc1c[nH]cn1)C(=O)N[C@@H](CC(C)C)C(=O)N[C@@H](C)C(=O)N[C@@H](CC(C)C)C(=O)O [3102.0780] (H-RNIARHLAL-OH) ?
3.2

IC50 for CSCC[C@H](NC(=O)[C@@H](N)CO)C(=O)N[C@@H](Cc1c[nH]cn1)C(=O)N[C@@H](Cc1ccccc1)C(=O)N[C@@H](Cc1ccc(O)cc1)C(=O)NCC(=O)N[C@@H](Cc1c[nH]c2ccccc12)C(=O)N[C@@H](CO)C(=O)N[C@@H](CC(C)C)C(=O)O [3102.0946] (H-SMHFYGWSL-OH) ?
2.9

IC50 for CSCC[C@H](NC(=O)[C@@H](NC(=O)[C@H](CS)NC(=O)[C@H](CCCCN)NC(=O)[C@H](CCC(N)=O)NC(=O)[C@H](CC(C)C)NC(=O)[C@H](CCCCN)NC(=O)[C@H](CC(C)C)NC(=O)[C@@H](N)CCSC)C(C)C)C(=O)O [3102.0611] (H-MLKLQKCVM-OH) ?
9.3

IC50 for CC(C)C[C@H](NC(=O)[C@H](CO)NC(=O)[C@H](C)NC(=O)[C@H](Cc1ccccc1)NC(=O)[C@H](CCCCN)NC(=O)[C@H](C)NC(=O)[C@H](Cc1ccc(O)cc1)NC(=O)[C@@H](NC(=O)[C@@H](N)[C@@H](C)O)C(C)C)C(=O)O [3102.0754] (H-TVYAKFASL-OH) ?
1.6

IC50 for CC[C@H](C)[C@H](NC(=O)[C@@H](NC(=O)[C@H](CC(N)=O)NC(=O)[C@H](CCCCN)NC(=O)[C@H](CCCNC(=N)N)NC(=O)[C@@H](NC(=O)[C@H](Cc1ccccc1)NC(=O)[C@H](CC(C)C)NC(=O)[C@@H](N)Cc1ccc(O)cc1)[C@@H](C)CC)C(C)C)C(=O)O [3102.0531] (H-YLFIRKNVI-OH) ?
0.71

IC50 for CC[C@H](C)[C@H](NC(=O)[C@@H](NC(=O)[C@H](CC(C)C)NC(=O)[C@H](Cc1ccccc1)NC(=O)[C@H](Cc1c[nH]cn1)NC(=O)[C@@H](NC(=O)[C@@H](NC(=O)[C@H](CCCCN)NC(=O)[C@@H](N)CCC(=O)O)[C@@H](C)CC)[C@@H](C)CC)[C@@H](C)O)C(=O)O [3102.0618] (H-EKIIHFLTI-OH) ?
5
